- System: CEM cells HIV-1 protection, formazan growth assay
- Test Summary: NCI AIDS Antiviral Assay;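 active = compounds giving half or more protection of infected cells from virus-caused growth loss, again on retest; inactive = the rest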
- Protocol: The ability of compounds to protect human CEM cells from HIV-1 infection is measured as a screen for new compounds capable of inhibiting the HIV virus. Five concentrations of drug were tested on uninfected and infected cells and cell growth was measured using a soluble formazan assay. […] Compounds that provided at least 50% protection were retested. Compounds that provided at least 50% protection on retest were listed as moderately active. […]
Classes used: Y (active), N (inactive)

* CCN1c2nc3ccccc3nc2N(CC)c2nc3ccccc3nc21 | N
* C/C(CC(=O)CCCC(=O)Nc1ccc(Cl)cc1Cl)=N/NC(=O)CC#N | N
* CS(=O)(=O)c1ccc(/C=C2/C=Cc3ccccc32)cc1 | N
* Clc1cc(Br)c2c3c(c(Br)cc(Cl)c13)C(Br)=C2Br | N
* O=Nc1c(-c2ccccc2)nc2ccccn12 | N
* C#CCOC(=O)C=[N+]=[N-] | N
* CC1=NNC(=O)C1C1CC(c2c[nH]c3ccccc23)=NNC1=S (stereo unspecified) | N
* CC#CCOC(=O)c1ccccc1OC(C)=O.[C-]#[O+].[C-]#[O+].[C-]#[O+].[C-]#[O+].[C-]#[O+].[C-]#[O+].[Co].[Co] | N
* S=C(Nc1cccc(-c2ccccc2)c1)Nc1ccc(Br)cn1 | N
* CCOC(=O)c1cn2c(n1)sc1cc(OC)ccc12 | N
* N#CC1(C#N)C(c2ccccc2)NC23CCCCC2C1(C#N)C(=O)N3 (stereo unspecified) | N
* CN(C)CCCNC(=O)c1cc(NC(=O)c2cc(NC(=O)c3cc(NC(=O)c4ccc(C(=O)Nc5cn(C)c(C(=O)Nc6cn(C)c(C(=O)Nc7cn(C)c(C(=O)NCCCN(C)C)n7)n6)n5)cc4)cn3C)cn2C)cn1C | N
* COC(=O)C(C)Oc1ccc(O)cc1 (stereo unspecified) | N
* O=S(=O)(SC1=NCCN1)c1ccc2ccccc2c1 | Y
* COC(=O)C(=O)C(/C(=N/N)C(=O)Nc1ccccc1C(N)=O)c1nc2ccc([N+](=O)[O-])cc2[nH]c1=O (stereo unspecified) | N
* N#Cc1c(-c2ccc([N+](=O)[O-])cc2)c(C#N)c(=O)n(NS(=O)(=O)c2ccccc2)c1S | N
* CCN(C)c1nc(N(C)CC)c2nc(N(C)CC)nc(N(C)CC)c2n1 | N
* CC12C(=O)N(C3CCC(=O)NC3=O)C(=O)C1C1CCC2C1 (stereo unspecified) | N
* C[N+]1([O-])CCOCC1 | N
* COC(=O)C(=O)C(C(=O)C=C(C)C)C(=O)C(=O)Nc1nc2ccc([N+](=O)[O-])cc2s1 (stereo unspecified) | N
* C=CCn1c(=S)sc2c(C(=O)OCC)c3c(C)cc(C)cn3c2c1=O | N
* CC1CCCN2C(=O)CN(C3CCCCC3)CC(=O)N12 (stereo unspecified) | N
* OCC1OC2OC3C(CO)OC(OC4C(CO)OC(OC5C(CO)OC(OC6C(CO)OC(OC7C(CO)OC(OC1C(O)C2O)C(O)C7O)C(O)C6O)C(O)C5O)C(O)C4O)C(O)C3O (stereo unspecified) (tested in a mixture with another compound) | N
* O=C1c2ccccc2C(c2ccccc2)C1c1ccccc1 (stereo unspecified) | N
* CCOC(=O)CCC(NC(=O)c1ccc(Nc2nc3cc(C(F)(F)F)ccc3nc2C(=O)OCC)cc1)C(=O)OCC (stereo unspecified) | N
* Cc1ccc(S(=O)(=O)NCNS(=O)(=O)c2ccc(C)cc2)cc1 | N
* C=CCNc1nc2c(s1)CCc1cc(OC)c(OC)cc1-2 | N
* c1ccc(OCCSCCCCCCCCCCSCCOc2ccccc2)cc1 | N
* CCOCN1COCN(C)C1=O | N
* CCC1(O)C(=O)OCc2c1cc1n(c2=O)Cc2cc3cc4c(cc3nc2-1)OCO4 (stereo unspecified) | N
* Cc1ccc(N2C(=O)/C(=c3\s/c(=C(/N)O)c(=N)n3-c3ccccc3)SC2=S)cc1 | N
* Cc1c2c(cc3c(=O)ccn(CCN(C)C)c13)c(=O)ccn2CCN(C)C | N
* Oc1ccccc1-c1n[nH]c(-c2ccccc2O)n1 | N
* COC1=C(C)C(=O)C2=C(C1=O)C1C3CC4=C(C(=O)C(OC)=C(C)C4=O)C(CNC(=O)C(C)=O)N3C(C#N)C(C2)N1C (stereo unspecified) | N
* CC12CCC(CC1(Cl)Cl)C2 (stereo unspecified) | N
* Nc1nc(N)c(N=O)c(Nc2cccc(Br)c2)n1 | N
